Measured IC50, listed per entry.
tested on: COLO 205; experiment: Cytotoxicity against human COLO205 cells; format: functional, cell-based
Provide the reading as a plain figure in µg/mL.

Molecule	Tgt	Metric	Reported Value
COc1cc(O)c2c(=O)cc(-c3ccccc3)oc2c1	COLO 205	IC50	37.1

// switching to the query molecule
Ask: Tell me reported IC50 for C=C1[C@@H](O)C[C@H]2C(C)(C)CCC[C@]2(C)[C@H]1C/C=C1/CCOC1=O , tested with COLO 205.
Result: 29.8

###

system: COLO 205; assay: Cytotoxicity against human COLO205 cells; assay type: functional, cell-based
Measured IC50, listed per entry.
Provide the reading as a plain figure in µg/mL.

Ask: Tell me reported IC50 for O=c1c(O)c(-c2ccccc2)oc2cc(O)cc(O)c12 , tested with COLO 205.
Result: 33.1

Ask: Tell me reported IC50 for C=C1C[C@@H](O)[C@H]2C(C)(C)CCC[C@]2(C)[C@H]1/C=C/c1ccoc1 , tested with COLO 205.
Result: 27.1

Ask: Tell me reported IC50 for C=C1CC(=O)[C@H]2C(C)(C)CCC[C@]2(C)[C@H]1C/C=C1\CC(O)OC1=O (stereo not given in full) , tested with COLO 205.
Result: 27.6

Ask: Tell me reported IC50 for CC1=CC(=O)[C@H]2C(C)(C)CCC[C@]2(C)[C@@]1(O)/C=C/c1ccoc1 , tested with COLO 205.
Result: 24

Ask: Tell me reported IC50 for CC1=C(O)C(=O)[C@H]2C(C)(C)CCC[C@]2(C)[C@H]1/C=C/C1=CC(=O)OC1 , tested with COLO 205.
Result: 12
